Test system: OVCAR-5 ovarian
method: NCI-60 one-dose screen, 48 h (100 = growth as untreated, 0 = no growth, -100 = all killed)
test-conditions: 10 µM unless noted
The panel holds about 83,000 compounds, 20% with a hit somewhere; the sample as a whole holds those more often.
assay-metric: growth (%)
Field: numeric (%). Do not append units.

Solved entries:
| molecule | assay-metric | units-of-measure | measured |
| --- | --- | --- | --- |
| O=CC(Br)C(Br)c1ccccc1 (stereo not drawn) | growth | % | 98 |
| CC1(C)N=C(N)N=C(N)N1c1ccc(OCCCCNC(=O)c2ccc(S(=O)(=O)F)cc2)c(Cl)c1 | growth | % | 56.2 |

// lookup growth | system=OVCAR-5 ovarian | key= `Cc1cc([N+](=O)[O-])c(Cl)cc1NS(=O)(=O)c1ccccc1`
83.5
